- Tested on: L6
- Test: Cytotoxicity against rat L6 cells
- Format: cell-based
pIC50: −log10 of the molar value.
Cut-off 4 on pIC50, inclusive. At or above means t; below means f.

Structure smiles string: c1cc(NC2=NCCN2)ccc1Cc1ccc(NC2=NCCN2)cc1
Category label: t

In: Confirm if pIC50 reported for the molecule CC(=O)c1ccc(NC(=N)N)cc1 is 4 or above.
Out: f

In: Confirm if pIC50 reported for the molecule N=C(N)Nc1ccc(NC(=S)Nc2ccccc2)cc1 is 4 or above.
Out: f

In: Confirm if pIC50 reported for the molecule c1cc(N2CCCCC2)ccc1NC1=NCCN1 is 4 or above.
Out: f

In: Confirm if pIC50 reported for the molecule N=C(N)Nc1ccc2c(c1)OCO2 is 4 or above.
Out: f

In: Confirm if pIC50 reported for the molecule CC(C)(C)OC(=O)/N=C(/NC(=O)OC(C)(C)C)Nc1ccc(Nc2ccc(N/C(=N\C(=O)OC(C)(C)C)NC(=O)OC(C)(C)C)cc2)cc1 is 4 or above.
Out: t

In: Confirm if pIC50 reported for the molecule c1ccc(Oc2ccc(NC3=NCCN3)cc2)cc1 is 4 or above.
Out: f

In: Confirm if pIC50 reported for the molecule N=C(N)Nc1ccc(N)cc1 is 4 or above.
Out: f

In: Confirm if pIC50 reported for the molecule O=C(c1ccccc1)c1ccc(NC2=NCCN2)cc1 is 4 or above.
Out: f

In: Confirm if pIC50 reported for the molecule Cl.N=C(N)Nc1ccc(NC(=O)Nc2ccc(NC(=N)N)cc2)cc1 is 4 or above.
Out: f

In: Confirm if pIC50 reported for the molecule COc1ccc(NC(=N)N)cc1OC is 4 or above.
Out: f

In: Confirm if pIC50 reported for the molecule O=C(c1ccc(NC2=NCCN2)cc1)c1ccc(NC2=NCCN2)cc1 is 4 or above.
Out: f

In: Confirm if pIC50 reported for the molecule Cl.Cl.O=C(Nc1ccc(NC2=NCCN2)cc1)c1ccc(NC2=NCCN2)cc1 is 4 or above.
Out: f

In: Confirm if pIC50 reported for the molecule Cl.N=C(N)Nc1ccc(C2CCN(c3ccc(NC(=N)N)cc3)CC2)cc1 is 4 or above.
Out: t

In: Confirm if pIC50 reported for the molecule c1cc2c(cc1NC1=NCCN1)CCC2 is 4 or above.
Out: f

In: Confirm if pIC50 reported for the molecule Cl.N=C(N)Nc1ccc(NC(=S)Nc2ccc(NC(=N)N)cc2)cc1 is 4 or above.
Out: t

In: Confirm if pIC50 reported for the molecule CN(C)c1ccc(NC2=NCCN2)cc1 is 4 or above.
Out: f

In: Confirm if pIC50 reported for the molecule Cc1ccc(NC(=N)N)cc1 is 4 or above.
Out: f

In: Confirm if pIC50 reported for the molecule CCOC(CNC(=N)Nc1ccc(Cc2ccc(NC(=N)NCC(OCC)OCC)cc2)cc1)OCC is 4 or above.
Out: f

In: Confirm if pIC50 reported for the molecule N=C(N)Nc1ccc(Oc2ccccc2)cc1 is 4 or above.
Out: t
